# Assayed Target: BTK (Homo sapiens)
# Sequence (Q06187 whole entry): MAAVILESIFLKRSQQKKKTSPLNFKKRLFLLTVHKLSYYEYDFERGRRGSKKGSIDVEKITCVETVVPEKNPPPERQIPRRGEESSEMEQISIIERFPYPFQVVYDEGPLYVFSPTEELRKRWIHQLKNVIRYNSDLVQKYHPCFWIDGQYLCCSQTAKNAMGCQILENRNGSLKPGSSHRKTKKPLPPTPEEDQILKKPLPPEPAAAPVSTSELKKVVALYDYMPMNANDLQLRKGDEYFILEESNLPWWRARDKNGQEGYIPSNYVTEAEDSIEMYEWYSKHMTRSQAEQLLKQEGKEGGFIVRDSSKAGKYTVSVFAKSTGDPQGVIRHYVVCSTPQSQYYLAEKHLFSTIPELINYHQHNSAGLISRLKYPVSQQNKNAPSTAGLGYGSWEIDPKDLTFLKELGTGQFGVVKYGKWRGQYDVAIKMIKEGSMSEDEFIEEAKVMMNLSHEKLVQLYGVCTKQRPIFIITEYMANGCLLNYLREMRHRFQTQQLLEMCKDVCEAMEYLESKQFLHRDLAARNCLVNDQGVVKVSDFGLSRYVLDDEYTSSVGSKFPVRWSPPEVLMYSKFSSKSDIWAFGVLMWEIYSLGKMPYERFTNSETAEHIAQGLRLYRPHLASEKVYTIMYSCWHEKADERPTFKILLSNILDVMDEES
pIC50: −log10 of the molar value.
Measured Attribute: pIC50

Q: Name the recorded pIC50 of the compound listed here: O=S(=O)(c1ccc(C(O)CO)c(C(F)(F)F)c1)N1CCc2cc(C3CC3NCC3CCNCC3)ccc21 (stereo not shown)
Ans: < 5.00

----------
# Assayed Target: ITK (Homo sapiens, UniProt Q08881)
# Sequence (Q08881 whole entry): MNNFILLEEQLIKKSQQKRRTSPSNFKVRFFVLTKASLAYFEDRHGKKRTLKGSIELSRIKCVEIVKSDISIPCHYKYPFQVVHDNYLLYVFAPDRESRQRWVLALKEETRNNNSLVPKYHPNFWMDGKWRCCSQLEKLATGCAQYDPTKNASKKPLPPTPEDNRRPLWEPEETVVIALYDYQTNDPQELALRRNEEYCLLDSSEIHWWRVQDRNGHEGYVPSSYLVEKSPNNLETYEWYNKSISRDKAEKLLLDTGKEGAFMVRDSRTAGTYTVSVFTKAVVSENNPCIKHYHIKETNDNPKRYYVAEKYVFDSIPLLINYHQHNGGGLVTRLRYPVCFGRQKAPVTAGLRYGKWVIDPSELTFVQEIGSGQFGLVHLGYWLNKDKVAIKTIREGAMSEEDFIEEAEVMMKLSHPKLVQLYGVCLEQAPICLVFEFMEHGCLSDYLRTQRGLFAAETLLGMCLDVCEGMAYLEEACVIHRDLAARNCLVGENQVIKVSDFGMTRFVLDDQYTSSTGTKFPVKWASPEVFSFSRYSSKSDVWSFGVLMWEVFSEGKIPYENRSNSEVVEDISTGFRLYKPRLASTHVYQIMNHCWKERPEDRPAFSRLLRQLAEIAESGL
pIC50: −log10 of the molar value.
Measured Attribute: pIC50

Q: Name the recorded pIC50 of the compound listed here: O=S(=O)(c1ccc(C(O)CO)c(C(F)(F)F)c1)N1CCc2cc(C3CC3NCC3CCNCC3)ccc21 (stereo not shown)
Ans: < 5.00

----------
# Assayed Target: EPHA1 (Homo sapiens, UniProt P21709)
# Sequence (P21709 26-976): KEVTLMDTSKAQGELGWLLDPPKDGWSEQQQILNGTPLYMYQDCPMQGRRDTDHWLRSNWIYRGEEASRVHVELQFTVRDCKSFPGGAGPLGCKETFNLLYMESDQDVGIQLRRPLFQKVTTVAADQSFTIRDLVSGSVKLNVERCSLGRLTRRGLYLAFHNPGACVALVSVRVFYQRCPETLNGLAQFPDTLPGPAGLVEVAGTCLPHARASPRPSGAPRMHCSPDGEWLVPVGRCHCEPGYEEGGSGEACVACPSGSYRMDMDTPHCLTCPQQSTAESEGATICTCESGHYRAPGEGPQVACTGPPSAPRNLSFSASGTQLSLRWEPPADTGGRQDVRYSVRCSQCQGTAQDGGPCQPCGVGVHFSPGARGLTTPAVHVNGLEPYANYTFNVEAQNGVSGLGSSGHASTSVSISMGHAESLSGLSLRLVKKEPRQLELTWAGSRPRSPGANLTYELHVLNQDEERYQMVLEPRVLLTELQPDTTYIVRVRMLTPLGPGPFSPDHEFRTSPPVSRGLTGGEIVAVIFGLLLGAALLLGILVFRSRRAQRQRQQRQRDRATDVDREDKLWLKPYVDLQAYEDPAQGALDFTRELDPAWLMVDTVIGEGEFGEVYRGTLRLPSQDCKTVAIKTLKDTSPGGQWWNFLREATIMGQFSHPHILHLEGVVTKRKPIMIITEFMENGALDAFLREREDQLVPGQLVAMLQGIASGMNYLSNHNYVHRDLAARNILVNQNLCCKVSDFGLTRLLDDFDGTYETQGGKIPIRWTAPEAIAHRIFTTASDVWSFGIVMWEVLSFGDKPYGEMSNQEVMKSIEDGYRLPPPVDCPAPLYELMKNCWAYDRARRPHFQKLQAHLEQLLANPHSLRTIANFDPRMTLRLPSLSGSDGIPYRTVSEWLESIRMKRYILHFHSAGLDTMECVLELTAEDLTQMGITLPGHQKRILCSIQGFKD
Measured Attribute: IC50

Q: Name the recorded IC50 of the compound listed here: O=S(=O)(c1ccc(C(O)CO)c(C(F)(F)F)c1)N1CCc2cc(C3CC3NCC3CCNCC3)ccc21 (stereo not shown)
Ans: > 10 µM

----------
# Assayed Target: PLK1 (Homo sapiens)
# Sequence (P53350 whole entry): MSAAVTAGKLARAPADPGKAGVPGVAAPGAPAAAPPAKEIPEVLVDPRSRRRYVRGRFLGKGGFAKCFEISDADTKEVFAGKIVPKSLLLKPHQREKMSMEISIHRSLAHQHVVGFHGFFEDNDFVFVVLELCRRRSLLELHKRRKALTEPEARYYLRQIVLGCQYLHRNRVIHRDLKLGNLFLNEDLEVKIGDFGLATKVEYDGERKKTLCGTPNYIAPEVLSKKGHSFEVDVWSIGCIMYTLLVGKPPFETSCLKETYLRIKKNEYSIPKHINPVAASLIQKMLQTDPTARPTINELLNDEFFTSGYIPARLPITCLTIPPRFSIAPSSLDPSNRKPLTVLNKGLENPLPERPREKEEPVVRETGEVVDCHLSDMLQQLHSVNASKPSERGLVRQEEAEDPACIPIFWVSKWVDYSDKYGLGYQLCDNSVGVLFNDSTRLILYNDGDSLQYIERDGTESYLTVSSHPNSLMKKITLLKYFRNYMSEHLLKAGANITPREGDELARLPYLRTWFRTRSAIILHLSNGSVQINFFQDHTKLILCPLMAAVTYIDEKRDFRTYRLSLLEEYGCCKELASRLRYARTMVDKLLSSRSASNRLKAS
pIC50: −log10 of the molar value.
Measured Attribute: pIC50

Q: Name the recorded pIC50 of the compound listed here: O=S(=O)(c1ccc(C(O)CO)c(C(F)(F)F)c1)N1CCc2cc(C3CC3NCC3CCNCC3)ccc21 (stereo not shown)
Ans: < 5.00

----------
# Assayed Target: LSD1 (Homo sapiens)
# Construct: Recombinant human LSD1 (172–852 aa); by word order LSD1 from Sino Biological
# Assay Notes: Lance Ultra LSD1 demethylase TR-FRET enzyme inhibition assay
# Type: biochemical
# Applied Conditions: ratio of LSD2 IC50 to LSD1 IC50
Task for the reader: assign each of the following molecules its reported LSD2/LSD1 selectivity (folds).
One number for each entry, in folds.

Worked examples follow.
Molecule	Assayed Target	Reported
O=C(O)c1ccc(CN2CCC(CN[C@@H]3C[C@H]3c3ccccc3)CC2)cc1 [GSK2879552, reference compound]	LSD1 (Homo sapiens)	4
O=S(=O)(c1cccc(-c2ccccc2)c1)N1CCc2cc(C3CC3NCC3CCNCC3)ccc21 (stereo not drawn) [LTM-2]	LSD1 (Homo sapiens)	215
O=S(=O)(c1cccc(CC2CC2)c1)N1CCc2cc(C3CC3NCC3CCNCC3)ccc21 (stereo not drawn) [LTM-5]	LSD1 (Homo sapiens)	92
O=S(=O)(c1ccc(CO)c(Cl)c1)N1CCc2cc(C3CC3NCC3CCNCC3)ccc21 (stereo not drawn) [LTM-3]	LSD1 (Homo sapiens)	668

Q: Return reported LSD2/LSD1 selectivity (folds) for target or system LSD1 (Homo sapiens), item C=CCc1cccc(S(=O)(=O)N2CCc3cc(C4CC4NCC4CCNCC4)ccc32)c1 (stereo not drawn) [LTM-4] .
Ans: 97

----------
# Assayed Target: FGFR1 (Homo sapiens, UniProt P11362)
# Sequence (P11362 22-822): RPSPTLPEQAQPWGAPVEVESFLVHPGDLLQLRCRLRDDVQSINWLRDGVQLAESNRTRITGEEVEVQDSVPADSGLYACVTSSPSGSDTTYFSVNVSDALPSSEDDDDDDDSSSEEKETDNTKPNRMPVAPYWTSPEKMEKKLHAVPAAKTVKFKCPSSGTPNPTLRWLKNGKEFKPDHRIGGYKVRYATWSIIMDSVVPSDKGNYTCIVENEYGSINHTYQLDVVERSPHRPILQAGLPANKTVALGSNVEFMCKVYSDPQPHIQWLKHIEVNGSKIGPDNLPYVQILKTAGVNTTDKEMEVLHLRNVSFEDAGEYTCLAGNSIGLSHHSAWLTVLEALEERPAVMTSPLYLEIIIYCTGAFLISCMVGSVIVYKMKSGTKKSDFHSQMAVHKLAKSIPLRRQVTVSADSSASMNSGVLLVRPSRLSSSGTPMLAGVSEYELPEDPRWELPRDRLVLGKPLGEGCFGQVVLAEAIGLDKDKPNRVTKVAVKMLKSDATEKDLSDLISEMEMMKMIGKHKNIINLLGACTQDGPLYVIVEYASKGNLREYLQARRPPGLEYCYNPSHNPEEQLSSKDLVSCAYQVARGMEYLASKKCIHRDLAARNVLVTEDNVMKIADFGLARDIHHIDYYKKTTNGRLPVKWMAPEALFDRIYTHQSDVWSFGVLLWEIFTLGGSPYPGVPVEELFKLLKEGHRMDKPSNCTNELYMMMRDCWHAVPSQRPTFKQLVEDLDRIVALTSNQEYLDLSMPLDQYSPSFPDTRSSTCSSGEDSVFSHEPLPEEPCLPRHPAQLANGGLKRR
Measured Attribute: IC50

Q: Name the recorded IC50 of the molecule listed here: O=S(=O)(c1ccc(C(O)CO)c(C(F)(F)F)c1)N1CCc2cc(C3CC3NCC3CCNCC3)ccc21 (stereo not shown)
Ans: > 10 µM

----------
Task for the reader: assign each of the following compounds its reported IC50.
# Assayed Target: LSD1 (Homo sapiens, UniProt O60341)
# Construct: Recombinant human LSD1 (172–852 aa); by word order LSD1 from Sino Biological
# Assay Notes: Lance Ultra LSD1 demethylase TR-FRET enzyme inhibition assay
# Applied Conditions: recombinant human LSD1 (172–852 aa) 2 nM, Bio-H3K4me2 substrate, 1 h, TR-FRET; mean ± SD, n = 3

Compound	Assayed Target	IC50
O=C(O)c1ccc(CN2CCC(CN[C@@H]3C[C@H]3c3ccccc3)CC2)cc1 [GSK2879552, reference compound]	LSD1 (Homo sapiens, UniProt O60341)	24.5 nM
O=S(=O)(c1cccc(CC2CC2)c1)N1CCc2cc(C3CC3NCC3CCNCC3)ccc21 (stereo not shown)	LSD1 (Homo sapiens, UniProt O60341)	7.31 nM
O=S(=O)(c1ccc(CO)c(Cl)c1)N1CCc2cc(C3CC3NCC3CCNCC3)ccc21 (stereo not shown)	LSD1 (Homo sapiens, UniProt O60341)	4.57 nM

# batch size: 3; output IC50 per entry
1. O=S(=O)(c1cccc(-c2ccccc2)c1)N1CCc2cc(C3CC3NCC3CCNCC3)ccc21 (stereo not shown)
2. O=S(=O)(c1ccc(C(O)CO)c(C(F)(F)F)c1)N1CCc2cc(C3CC3NCC3CCNCC3)ccc21 (stereo not shown)
3. C=CCc1cccc(S(=O)(=O)N2CCc3cc(C4CC4NCC4CCNCC4)ccc32)c1 (stereo not shown)

Ans:
1: 10.2 nM; 2: 2.11 nM; 3: 8.92 nM

Q: Name the recorded IC50 of the compound listed here: O=S(=O)(c1cccc(CC2CCCCC2)c1)N1CCc2cc(C3CC3NCC3CCNCC3)ccc21 (stereo not shown)
Ans: 16.5 nM

----------
# Assayed Target: CDK2 (Homo sapiens, UniProt P24941)
pIC50: −log10 of the molar value.
Measured Attribute: pIC50

Q: Return reported pIC50 for target or system CDK2 (Homo sapiens, UniProt P24941), item O=S(=O)(c1ccc(C(O)CO)c(C(F)(F)F)c1)N1CCc2cc(C3CC3NCC3CCNCC3)ccc21 (stereo not shown) .
Ans: < 5.00

----------
# Assayed Target: UniProt:P16234
# Sequence (P16234 24-1089): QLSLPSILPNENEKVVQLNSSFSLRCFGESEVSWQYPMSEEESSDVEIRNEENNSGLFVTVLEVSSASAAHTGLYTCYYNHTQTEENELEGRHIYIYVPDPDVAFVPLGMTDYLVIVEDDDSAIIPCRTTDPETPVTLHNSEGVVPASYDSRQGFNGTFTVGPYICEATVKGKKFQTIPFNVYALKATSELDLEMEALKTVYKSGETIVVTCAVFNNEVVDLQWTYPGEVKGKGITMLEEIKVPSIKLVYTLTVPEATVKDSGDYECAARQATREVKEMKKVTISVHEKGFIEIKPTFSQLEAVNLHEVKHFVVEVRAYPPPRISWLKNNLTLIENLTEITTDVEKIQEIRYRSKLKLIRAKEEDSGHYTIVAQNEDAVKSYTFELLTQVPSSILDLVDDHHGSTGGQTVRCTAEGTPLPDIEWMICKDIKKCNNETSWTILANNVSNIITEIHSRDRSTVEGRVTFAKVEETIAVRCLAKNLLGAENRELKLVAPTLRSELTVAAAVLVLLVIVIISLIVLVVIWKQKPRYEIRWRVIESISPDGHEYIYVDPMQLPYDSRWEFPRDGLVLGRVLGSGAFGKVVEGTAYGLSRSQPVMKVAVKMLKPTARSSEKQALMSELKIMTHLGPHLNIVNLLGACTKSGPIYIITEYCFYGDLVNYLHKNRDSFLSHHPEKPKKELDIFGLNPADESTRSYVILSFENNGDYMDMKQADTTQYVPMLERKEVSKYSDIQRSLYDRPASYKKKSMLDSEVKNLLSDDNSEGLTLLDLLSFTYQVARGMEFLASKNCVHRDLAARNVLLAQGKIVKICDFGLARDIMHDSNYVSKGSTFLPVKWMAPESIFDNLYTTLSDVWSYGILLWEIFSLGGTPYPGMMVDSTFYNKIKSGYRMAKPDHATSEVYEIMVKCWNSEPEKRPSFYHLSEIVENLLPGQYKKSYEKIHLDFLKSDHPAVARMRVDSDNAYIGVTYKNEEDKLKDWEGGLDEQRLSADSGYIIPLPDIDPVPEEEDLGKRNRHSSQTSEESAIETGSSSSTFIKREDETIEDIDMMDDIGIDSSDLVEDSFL
pIC50: −log10 of the molar value.
Measured Attribute: pIC50

Q: Name the recorded pIC50 of the compound listed here: O=S(=O)(c1ccc(C(O)CO)c(C(F)(F)F)c1)N1CCc2cc(C3CC3NCC3CCNCC3)ccc21 (stereo not shown)
Ans: < 5.00

----------
# Assayed Target: MERTK (Homo sapiens, UniProt Q12866)
# Sequence (Q12866 21-999): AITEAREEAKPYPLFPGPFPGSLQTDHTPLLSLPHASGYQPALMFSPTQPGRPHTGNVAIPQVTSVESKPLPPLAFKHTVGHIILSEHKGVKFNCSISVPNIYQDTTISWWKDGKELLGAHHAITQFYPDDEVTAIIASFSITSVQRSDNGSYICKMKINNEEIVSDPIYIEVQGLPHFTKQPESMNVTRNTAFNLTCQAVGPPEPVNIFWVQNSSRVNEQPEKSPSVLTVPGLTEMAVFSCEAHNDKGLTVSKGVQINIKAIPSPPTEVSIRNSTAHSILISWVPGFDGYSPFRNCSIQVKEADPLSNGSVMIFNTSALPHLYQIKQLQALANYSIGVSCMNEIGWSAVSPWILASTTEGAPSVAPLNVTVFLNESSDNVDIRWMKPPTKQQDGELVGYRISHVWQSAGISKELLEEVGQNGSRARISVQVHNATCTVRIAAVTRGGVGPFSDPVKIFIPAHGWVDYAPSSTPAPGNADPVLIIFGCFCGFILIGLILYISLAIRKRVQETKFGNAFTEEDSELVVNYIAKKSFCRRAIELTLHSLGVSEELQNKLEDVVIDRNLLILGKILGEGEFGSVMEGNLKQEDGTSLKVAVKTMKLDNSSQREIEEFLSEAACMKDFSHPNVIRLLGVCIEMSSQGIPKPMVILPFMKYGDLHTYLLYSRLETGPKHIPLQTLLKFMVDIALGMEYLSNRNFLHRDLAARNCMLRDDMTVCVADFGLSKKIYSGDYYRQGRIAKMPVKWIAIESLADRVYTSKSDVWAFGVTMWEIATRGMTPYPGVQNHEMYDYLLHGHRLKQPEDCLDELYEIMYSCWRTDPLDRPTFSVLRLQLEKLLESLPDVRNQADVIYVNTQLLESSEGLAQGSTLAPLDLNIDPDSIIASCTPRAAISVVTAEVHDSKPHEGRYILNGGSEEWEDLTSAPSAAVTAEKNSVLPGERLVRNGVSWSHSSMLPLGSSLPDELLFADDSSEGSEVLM
pIC50: −log10 of the molar value.
Measured Attribute: pIC50

Q: Name the recorded pIC50 of the molecule listed here: O=S(=O)(c1ccc(C(O)CO)c(C(F)(F)F)c1)N1CCc2cc(C3CC3NCC3CCNCC3)ccc21 (stereo not shown)
Ans: < 5.00

----------
# Assayed Target: EPHB1 (Homo sapiens, UniProt P54762)
# Sequence (P54762 18-984): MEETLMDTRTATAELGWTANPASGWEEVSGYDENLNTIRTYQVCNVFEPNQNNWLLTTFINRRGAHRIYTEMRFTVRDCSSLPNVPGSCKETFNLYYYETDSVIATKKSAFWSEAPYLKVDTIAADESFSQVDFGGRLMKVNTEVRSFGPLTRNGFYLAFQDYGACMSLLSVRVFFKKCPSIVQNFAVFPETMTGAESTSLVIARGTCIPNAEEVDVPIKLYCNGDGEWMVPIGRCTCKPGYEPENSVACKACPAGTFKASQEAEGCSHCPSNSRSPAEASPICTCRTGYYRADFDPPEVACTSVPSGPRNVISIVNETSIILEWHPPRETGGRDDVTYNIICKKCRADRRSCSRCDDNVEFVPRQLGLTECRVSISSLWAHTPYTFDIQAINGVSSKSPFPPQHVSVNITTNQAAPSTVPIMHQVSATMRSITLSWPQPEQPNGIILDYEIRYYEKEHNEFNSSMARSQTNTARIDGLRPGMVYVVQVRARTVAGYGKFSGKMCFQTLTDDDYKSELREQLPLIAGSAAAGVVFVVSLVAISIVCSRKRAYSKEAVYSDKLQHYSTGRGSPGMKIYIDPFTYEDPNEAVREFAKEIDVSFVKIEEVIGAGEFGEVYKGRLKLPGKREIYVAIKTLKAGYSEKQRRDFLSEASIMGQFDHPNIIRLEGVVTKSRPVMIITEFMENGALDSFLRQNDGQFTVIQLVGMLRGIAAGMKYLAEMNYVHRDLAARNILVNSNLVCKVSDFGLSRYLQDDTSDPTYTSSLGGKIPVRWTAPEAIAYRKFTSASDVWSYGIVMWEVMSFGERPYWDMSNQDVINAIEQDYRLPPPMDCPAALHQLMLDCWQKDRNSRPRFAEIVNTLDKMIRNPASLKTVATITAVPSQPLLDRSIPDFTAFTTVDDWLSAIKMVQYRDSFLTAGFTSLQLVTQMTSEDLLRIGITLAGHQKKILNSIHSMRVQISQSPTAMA
pIC50: −log10 of the molar value.
Measured Attribute: pIC50

Q: Name the recorded pIC50 of the compound listed here: O=S(=O)(c1ccc(C(O)CO)c(C(F)(F)F)c1)N1CCc2cc(C3CC3NCC3CCNCC3)ccc21 (stereo not shown)
Ans: < 5.00

Values were extracted from paper PMC11903733.
